molecular target: AP-2 complex subunit beta (Homo sapiens); experiment: inhibitors of arrestin peptide binding to AP2, pilot screen, biochemical, validation set, GST-AP2 beads, flow cytometry (AID 504541); conditions: FITC arrestin peptide, at 10 µM, hits give high values, AP2 beta2 appendage fragment, R879A mutant;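 further: AP2 carries R879A mutation and is captured from E. coli lysate; bead-bound FITC arrestin peptide fluorescence measuring arrestin peptide binding to AP2; 0% = DMSO wells and 100% = excess unlabeled arrestin peptide control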

{"molecule": "CNCCC=C1c2ccccc2CCc2ccccc21", "inhibition, %": -0.2}
{"molecule": "C=CCn1c(SCC(=O)NC2CCCCC2)nc2ccccc2c1=O", "inhibition, %": 1.93}
{"molecule": "CCOC(=O)c1ccccc1NC(=O)c1ccc(F)cc1", "inhibition, %": 6.01}
{"molecule": "CCOC(=O)[C@H](CCc1ccccc1)N[C@@H](C)C(=O)N1CCC[C@H]1C(=O)O", "inhibition, %": 61}
{"molecule": "O=C1C2C3C=CC(C4CC34)C2C(=O)N1/N=C/c1ccc(-c2ccc([N+](=O)[O-])cc2)o1 (stereo unspecified)", "inhibition, %": 14.3}
{"molecule": "CCN(CC)CCNC(=O)c1cc(S(C)(=O)=O)ccc1OC", "inhibition, %": -1.05}
{"molecule": "C=CCc1cccc2cc(C(=O)Nc3ccc(CC(=O)O)cc3)c(=O)oc12", "inhibition, %": 28.6}
{"molecule": "COc1cccc(OC2OC3COC(C)(C)OC3C(O)C2NC(C)=O)c1 (stereo unspecified)", "inhibition, %": 2.96}
{"molecule": "COc1ccc(-c2[nH]ncc2C=O)cc1OC", "inhibition, %": 11.3}
{"molecule": "CN(C)CCCNc1ncnc2c1cnn2-c1ccccc1", "inhibition, %": -0.95}
{"molecule": "COc1cc(=O)n(C)c2ccccc12", "inhibition, %": 28}
